run-parameters: in ethyl acetate, 318.15 K
readout: solubility (mole fraction)
Note: the reply should be a number with no unit written.

Qu. Answer with the recorded solubility (mole fraction) of CC1(C)[C@H](C(=O)O)[C@@H]1/C=C(\Cl)C(F)(F)F (racemic) only.
Ans. 0.217

###

run-parameters: in methanol, 313.15 K
readout: solubility (mole fraction)
Lab note: record the figure alone, no unit after it.

Qu. Indicate its recorded solubility (mole fraction); the compound in question is CC1(C)[C@H](C(=O)O)[C@@H]1/C=C(\Cl)C(F)(F)F (racemic)
Ans. 0.139

###

run-parameters: in methyl acetate, 318.15 K
readout: solubility (mole fraction)
No unit in the answer, only the number.

Qu. Given CC1(C)[C@H](C(=O)O)[C@@H]1/C=C(\Cl)C(F)(F)F (racemic) , respond with its solubility (mole fraction).
Ans. 0.2

From: BigSolDB 2.1
